Data origin, for the record: paper PMC9596378

- System Name: Cyp40 (Homo sapiens, UniProt Q08752)
- Sequence (Q08752 1-183): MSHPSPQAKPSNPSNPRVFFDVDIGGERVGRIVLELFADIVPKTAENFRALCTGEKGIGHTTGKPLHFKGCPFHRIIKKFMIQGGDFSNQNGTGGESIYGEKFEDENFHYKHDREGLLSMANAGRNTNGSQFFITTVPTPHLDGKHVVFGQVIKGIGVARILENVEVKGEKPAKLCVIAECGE
Assay Endpoint: Ki

- NC(=O)C1CCNC(=O)C=CC(=O)N2CCCC(Cc3ccccc3)(C2)C(=O)NC(Cc2ccc(-c3ccc(C=O)c(B(O)O)c3)cc2)C(=O)NCc2ccccc2CC(=O)N1 (stereo not shown) [Compound C3A]: > 10 µM

====

# IC50 values compiled below
- System Name: CypB E121S (Homo sapiens, UniProt P23284, E121S)
- Construct: Lane 14- SNA-CypB E121S (34-216);; His6 tag with TEV site (2BT vector); SNA remnant stays on the N-terminus (N, cleaved yes); made in house; host or cells: E. coli BL21(DE3)
- Sequence (P23284 34-216 E121S): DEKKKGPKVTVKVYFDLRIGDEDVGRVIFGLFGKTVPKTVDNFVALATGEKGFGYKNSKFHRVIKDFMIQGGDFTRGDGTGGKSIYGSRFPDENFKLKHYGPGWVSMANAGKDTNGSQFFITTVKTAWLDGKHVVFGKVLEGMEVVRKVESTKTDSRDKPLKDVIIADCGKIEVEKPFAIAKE
- Assay Details: biochemical
- Assay Conditions: mutant CypB E121S; read-out: Mutant Cyclophilin Prolyl Isomerase Inhibition IC50 Values, CypB E121S
Assay Endpoint: IC50 (nM)

* NCCOCCNC(=O)[C@@H]1CCNC(=O)/C=C/C(=O)N2CCC[C@](Cc3ccccc3)(C2)C(=O)N[C@@H](Cc2ccc(-c3ccc(CCC(=O)O)cc3)cc2)C(=O)NCc2ccccc2CC(=O)N1 | 8
* NCCOCCNC(=O)[C@@H]1CCNC(=O)/C=C/C(=O)N2CCC[C@](Cc3ccccc3)(C2)C(=O)N[C@@H](Cc2ccc(-c3ccc(C#CC(=O)O)cc3)cc2)C(=O)NCc2ccccc2CC(=O)N1 | 2.2

====

- System Name: PPWD1 (Homo sapiens)
- Construct: PPWD1 (UniProtKB Entry Q96BP3: residues 473–646); host or cells: E. coli BL21(DE3)
- Sequence (Q96BP3 473-646): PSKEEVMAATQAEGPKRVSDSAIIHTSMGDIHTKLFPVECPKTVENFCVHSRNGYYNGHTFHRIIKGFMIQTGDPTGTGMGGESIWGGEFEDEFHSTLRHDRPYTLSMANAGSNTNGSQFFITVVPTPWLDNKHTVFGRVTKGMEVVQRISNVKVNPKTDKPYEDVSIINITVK
- Assay Details: Chymotrypsin coupled prolyl-isomerase assay
- Format: biochemical
- Assay Conditions: wild-type PPWD1; read-out: Wild-Type Cyclophilin Prolyl Isomerase Inhibition IC50 Values, PPWD1
Assay Endpoint: IC50 (µM)

• NCCOCCNC(=O)[C@@H]1CCNC(=O)/C=C/C(=O)N2CCC[C@](Cc3ccccc3)(C2)C(=O)N[C@@H](Cc2ccc(-c3ccc(CCC(=O)O)cc3)cc2)C(=O)NCc2ccccc2CC(=O)N1 = 11
• NCCCc1ccc(-c2ccc(C[C@@H]3NC(=O)[C@]4(Cc5ccccc5)CCCN(C4)C(=O)/C=C/C(=O)NCC[C@@H](C(=O)NCCOCCN)NC(=O)Cc4ccccc4CNC3=O)cc2)cc1 = 0.8

====

- System Name: CypD (Homo sapiens)
- Sequence (P30405 45-207): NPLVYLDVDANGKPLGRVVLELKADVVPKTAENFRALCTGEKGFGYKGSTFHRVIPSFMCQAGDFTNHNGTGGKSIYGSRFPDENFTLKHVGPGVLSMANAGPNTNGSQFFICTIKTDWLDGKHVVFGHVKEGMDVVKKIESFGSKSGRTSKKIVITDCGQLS
- Assay Details: Chymotrypsin coupled prolyl-isomerase assay
As shown below, each of these molecules has a reported IC50 value.
Assay Endpoint: IC50 (µM)

* NCCOCCNC(=O)[C@@H]1CCNC(=O)/C=C/C(=O)N2CCC[C@](Cc3ccccc3)(C2)C(=O)N[C@@H](Cc2ccc(-c3ccc(CC(C(=O)O)C(=O)O)cc3)cc2)C(=O)NCc2ccccc2CC(=O)N1 [Compound B52] | 0.01
* NCCOCCNC(=O)C1CCNC(=O)C=CC(=O)N2CCCC(C2)C(=O)NC(Cc2cccs2)C(=O)NCc2ccccc2CC(=O)N1 (stereo not drawn) [Compound A17] | 14
* NCCOCCNC(=O)C1CCNC(=O)C=CC(=O)N2CCCC(C2)C(=O)NC(CC=Cc2ccccc2)C(=O)NCc2ccccc2CC(=O)N1 (stereo not drawn) [Compound A11] | 17

====

- System Name: CypE K218A (Homo sapiens, UniProt Q9UNP9, K218A)
- Construct: Lane 6- GS-CypE K218A (131-301);; His6 tag with thrombin site (pET28a LIC); GS remnant stays on the N-terminus (N, cleaved yes); host or cells: E. coli BL21(DE3)
- Sequence (Q9UNP9 131-301 K218A): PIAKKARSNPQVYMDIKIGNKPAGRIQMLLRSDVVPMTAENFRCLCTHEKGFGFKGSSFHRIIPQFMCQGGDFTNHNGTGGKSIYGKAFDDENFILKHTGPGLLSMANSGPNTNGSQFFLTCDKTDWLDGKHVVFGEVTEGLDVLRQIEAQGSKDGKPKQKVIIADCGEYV
- Assay Details: Chymotrypsin coupled prolyl-isomerase assay
- Format: biochemical
- Assay Conditions: prolyl-isomerase inhibition; read-out: IC50 CypE K218A
pIC50: −log10 of the molar value.
Assay Endpoint: pIC50

- NC(=O)C1CCNC(=O)C=CC(=O)N2CCCC(Cc3ccccc3)(C2)C(=O)NC(Cc2ccc(-c3ccc(C=O)c(B(O)O)c3)cc2)C(=O)NCc2ccccc2CC(=O)N1 (stereo not shown): 7.72

====

- System Name: PPWD1 (Homo sapiens)
- Construct: PPWD1 (UniProtKB Entry Q96BP3: residues 473–646); host or cells: E. coli BL21(DE3)
- Sequence (Q96BP3 473-646): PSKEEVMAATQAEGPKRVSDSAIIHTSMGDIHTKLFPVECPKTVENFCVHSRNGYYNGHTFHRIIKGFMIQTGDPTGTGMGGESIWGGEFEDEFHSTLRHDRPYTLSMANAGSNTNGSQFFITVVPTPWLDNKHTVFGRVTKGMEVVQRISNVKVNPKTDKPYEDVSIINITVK
- Assay Details: Chymotrypsin coupled prolyl-isomerase assay
- Assay type: biochemical
- Assay Conditions: prolyl-isomerase inhibition, 5 nM cyclophilin; read-out: IC50 PPWD1
pIC50: −log10 of the molar value.
Assay Endpoint: pIC50

* NCCOCCNC(=O)C1CCNC(=O)C=CC(=O)N2CCCC(C2)C(=O)NC(Cc2ccc(C(=O)c3ccccc3)cc2)C(=O)NCc2ccccc2CC(=O)N1 (stereo not drawn) | ~4.00
* NCCOCCNC(=O)[C@@H]1CCNC(=O)/C=C/C(=O)N2CCC[C@](Cc3ccccc3)(C2)C(=O)N[C@@H](Cc2ccc(-c3ccc(CC(C(=O)O)C(=O)O)cc3)cc2)C(=O)NCc2ccccc2CC(=O)N1 | < 4.00
* NCCOCCNC(=O)[C@@H]1CCNC(=O)/C=C/C(=O)N2CCC[C@](Cc3ccccc3)(C2)C(=O)N[C@@H](Cc2ccc(-c3ccc(C#CC(=O)O)cc3)cc2)C(=O)NCc2ccccc2CC(=O)N1 | ~5.00
* NCCOCCNC(=O)[C@@H]1CCNC(=O)/C=C/C(=O)N2CCC[C@](Cc3ccccc3)(C2)C(=O)N[C@@H](Cc2ccc(-c3ccc(C(CC(=O)O)CC(=O)O)cc3)cc2)C(=O)NCc2ccccc2CC(=O)N1 | < 4.30
* NC(=O)C1CCNC(=O)C=CC(=O)N2CCCC(Cc3ccccc3)(C2)C(=O)NC(Cc2ccc(-c3ccc(C=O)c(B(O)O)c3)cc2)C(=O)NCc2ccccc2CC(=O)N1 (stereo not drawn) | 5.10
* NCCOCCNC(=O)[C@@H]1CCNC(=O)/C=C/C(=O)N2CCC[C@](Cc3ccccc3)(C2)C(=O)N[C@@H](Cc2ccc(-c3ccc(CC(=O)O)cc3)cc2)C(=O)NCc2ccccc2CC(=O)N1 | ~4.30

====

Listed molecules paired with reported IC50
- System Name: CypB (Homo sapiens, UniProt P23284)
- Construct: PPIB (UniProtKB Entry P23284: residues 34–216); His6 with TEV site (2BT vector leader) (N); made in house; host or cells: E. coli BL21(DE3)
- Sequence (P23284 34-216): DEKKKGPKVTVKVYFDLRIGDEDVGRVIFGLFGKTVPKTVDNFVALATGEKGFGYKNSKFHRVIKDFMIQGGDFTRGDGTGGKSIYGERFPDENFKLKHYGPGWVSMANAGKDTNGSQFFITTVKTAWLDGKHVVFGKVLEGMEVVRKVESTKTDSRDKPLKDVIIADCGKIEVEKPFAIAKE
- Assay Details: biochemical
- Assay Conditions: wild-type CypB; read-out: Wild-Type Cyclophilin Prolyl Isomerase Inhibition IC50 Values, CypB
Assay Endpoint: IC50 (µM)

• NCCOCCNC(=O)[C@@H]1CCNC(=O)/C=C/C(=O)N2CCC[C@](Cc3ccccc3)(C2)C(=O)N[C@@H](Cc2ccc(-c3ccc(C(CC(=O)O)CC(=O)O)cc3)cc2)C(=O)NCc2ccccc2CC(=O)N1 = 1.1
• C[N+]1=C(C=CC=CC=C2N(CCCCCC(=O)NCCNC(=O)C3CCNC(=O)C=CC(=O)N4CCCC(Cc5ccccc5)(C4)C(=O)NC(Cc4ccc(-c5ccc(C(CC(=O)O)CC(=O)O)cc5)cc4)C(=O)NCc4ccccc4CC(=O)N3)c3ccccc3C2(C)C)C(C)(C)c2ccccc21 (stereo not drawn) [Compound B53-Cy5] = 1.5
• C[N+]1=C(C=CC=CC=C2N(CCCCCC(=O)NCCNC(=O)C3CCNC(=O)C=CC(=O)N4CCCC(Cc5ccccc5)(C4)C(=O)NC(Cc4ccc(-c5ccc(CC(C(=O)O)C(=O)O)cc5)cc4)C(=O)NCc4ccccc4CC(=O)N3)c3ccccc3C2(C)C)C(C)(C)c2ccccc21 (stereo not drawn) [Compound B52-Cy5] = 0.4
• NCCOCCNC(=O)C1CCNC(=O)C=CC(=O)N2CCCC(C2)C(=O)NC(Cc2ccc(C(=O)c3ccccc3)cc2)C(=O)NCc2ccccc2CC(=O)N1 (stereo not drawn) = 2.7
• NCCOCCNC(=O)[C@@H]1CCNC(=O)/C=C/C(=O)N2CCC[C@](Cc3ccccc3)(C2)C(=O)N[C@@H](Cc2ccc(-c3ccc(CC(C(=O)O)C(=O)O)cc3)cc2)C(=O)NCc2ccccc2CC(=O)N1 = 0.21

====

- System Name: NKTR (Homo sapiens, UniProt P30414)
- Construct: NKTR (UniProtKB Entry P30414: residues 7–179); host or cells: E. coli BL21(DE3)
- Sequence (P30414 7-179): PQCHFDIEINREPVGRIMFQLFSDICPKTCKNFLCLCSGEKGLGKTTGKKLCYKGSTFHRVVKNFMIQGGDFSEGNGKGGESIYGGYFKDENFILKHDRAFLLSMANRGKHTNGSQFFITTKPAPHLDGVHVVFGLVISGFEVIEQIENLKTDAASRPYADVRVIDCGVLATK
- Assay Details: Chymotrypsin coupled prolyl-isomerase assay
- Assay type: biochemical
- Assay Conditions: wild-type NKTR; read-out: Wild-Type Cyclophilin Prolyl Isomerase Inhibition IC50 Values, NKTR
Listed here: items and their measured IC50.
Assay Endpoint: IC50

- NCCOCCNC(=O)[C@@H]1CCNC(=O)/C=C/C(=O)N2CCC[C@](Cc3ccccc3)(C2)C(=O)N[C@@H](Cc2ccc(-c3ccc(C(CC(=O)O)CC(=O)O)cc3)cc2)C(=O)NCc2ccccc2CC(=O)N1: > 50 µM
- NCCOCCNC(=O)C1CCNC(=O)C=CC(=O)N2CCCC(C2)C(=O)NC(Cc2ccc(C(=O)c3ccccc3)cc2)C(=O)NCc2ccccc2CC(=O)N1 (stereo not shown): > 100 µM
- NCCOCCNC(=O)[C@@H]1CCNC(=O)/C=C/C(=O)N2CCC[C@](Cc3ccccc3)(C2)C(=O)N[C@@H](Cc2ccc(-c3ccc(/C=C/C(=O)O)cc3)cc2)C(=O)NCc2ccccc2CC(=O)N1: 13 µM
- C[N+]1=C(C=CC=CC=C2N(CCCCCC(=O)NCCNC(=O)C3CCNC(=O)C=CC(=O)N4CCCC(Cc5ccccc5)(C4)C(=O)NC(Cc4ccc(-c5ccc(C(CC(=O)O)CC(=O)O)cc5)cc4)C(=O)NCc4ccccc4CC(=O)N3)c3ccccc3C2(C)C)C(C)(C)c2ccccc21 (stereo not shown) [Compound B53-Cy5]: > 2 µM
